Molecular target: Phosphatidylinositol 4,5-bisphosphate 3-kinase catalytic subunit delta isoform (Homo sapiens)
Sequence (O00329 whole entry): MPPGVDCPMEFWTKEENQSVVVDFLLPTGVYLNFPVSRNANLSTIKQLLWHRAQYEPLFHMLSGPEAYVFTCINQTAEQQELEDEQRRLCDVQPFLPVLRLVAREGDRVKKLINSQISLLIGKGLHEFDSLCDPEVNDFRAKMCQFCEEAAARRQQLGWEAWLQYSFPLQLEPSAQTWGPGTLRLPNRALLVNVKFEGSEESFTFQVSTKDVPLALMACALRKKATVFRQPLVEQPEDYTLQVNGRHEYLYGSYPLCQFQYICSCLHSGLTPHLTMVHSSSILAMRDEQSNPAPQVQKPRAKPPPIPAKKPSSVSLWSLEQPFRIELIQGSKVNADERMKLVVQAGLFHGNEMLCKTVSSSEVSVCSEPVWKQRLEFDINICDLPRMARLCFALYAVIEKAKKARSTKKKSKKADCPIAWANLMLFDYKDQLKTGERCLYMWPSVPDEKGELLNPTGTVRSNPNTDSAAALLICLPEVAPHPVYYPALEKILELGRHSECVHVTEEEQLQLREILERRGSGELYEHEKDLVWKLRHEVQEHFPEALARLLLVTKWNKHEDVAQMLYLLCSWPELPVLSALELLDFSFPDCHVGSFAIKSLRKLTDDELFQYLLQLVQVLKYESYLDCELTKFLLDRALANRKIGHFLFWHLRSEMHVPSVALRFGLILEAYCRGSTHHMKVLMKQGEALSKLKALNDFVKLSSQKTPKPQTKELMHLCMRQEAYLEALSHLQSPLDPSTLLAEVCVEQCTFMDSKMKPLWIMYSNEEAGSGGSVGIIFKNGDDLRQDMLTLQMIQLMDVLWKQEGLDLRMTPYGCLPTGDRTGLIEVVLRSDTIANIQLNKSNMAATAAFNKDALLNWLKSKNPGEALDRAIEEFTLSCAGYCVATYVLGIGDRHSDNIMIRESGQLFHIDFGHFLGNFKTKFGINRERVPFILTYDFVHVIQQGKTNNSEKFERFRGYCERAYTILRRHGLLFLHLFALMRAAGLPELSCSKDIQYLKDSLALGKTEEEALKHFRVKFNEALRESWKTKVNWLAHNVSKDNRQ
measured_quantity: IC50 (nM)

| structure_string | result_unit | IC50 |
| --- | --- | --- |
| Fc1ccc2[nH]ccc2c1-c1nc(N2CCOCC2)c2sc(CN3CCN4CCOC[C@H]4C3)cc2n1 | nM | 9 |
| CC(C)(C(N)=O)N1CCN(Cc2cc3nc(-c4c(F)cc(F)c5[nH]ccc45)nc(N4CCOCC4)c3s2)CC1 | nM | 6 |
| Cc1cccc(-c2nc(N3CCOCC3)c3sc(CN4CCC(N(C)C)CC4)cc3n2)c1 | nM | 12 |

a: CC(C)(C(N)=O)N1CCN(Cc2cc3nc(-c4cc(F)cc5[nH]ccc45)nc(N4CCOCC4)c3s2)CC1
b: CN(C)C1CCN(Cc2cc3nc(-n4cnc5ccccc54)nc(N4CCOCC4)c3s2)CC1
Task: Given a and given b , which shows the smaller recorded IC50? Answer format: the label of the selected item.
Result: a

----------
Experiment: Selectivity ratio of IC50 for PI3Kgamma to IC50 for PI3Kdelta
measured_quantity: Ratio IC50

Answered cases to consult:
| structure_string | measured_quantity | reported_result |
| --- | --- | --- |
| CC(C)(C(N)=O)N1CCN(Cc2cc3nc(-c4c(F)ccc5[nH]ccc45)nc(N4CCOCC4)c3s2)CC1 | Ratio IC50 | 1880 |
| Cc1nc2ccccc2n1-c1nc(N2CCOCC2)c2sc(CN3CCC(N(C)C)CC3)cc2n1 | Ratio IC50 | 233 |

P: CC(C)(C(N)=O)N1CCN(Cc2cc3nc(-c4cccc5[nH]ncc45)nc(N4CCOCC4)c3s2)CC1
Q: CCc1nc2ccccc2n1-c1nc(N2CCOCC2)c2sc(CN3CCN(S(C)(=O)=O)CC3)cc2n1
Task: Which has the higher Ratio IC50, P or Q ? Output the label that corresponds to your choice.
Result: P

----------
Assay: Volume of distribution at steady state in […] Wistar rat at 0.5 mg/kg, iv and 2 mg/kg, po
Type: ADME, organism-based
Settings: in vivo, read-out: Vdss
measured_quantity: Vd (L/kg)

| structure_string | Vd, L/kg |
| --- | --- |
| Fc1ccc2[nH]ccc2c1-c1nc(N2CCOCC2)c2sc(CN3CCN4CCOC[C@H]4C3)cc2n1 | 2.76 |
| CC(C)(C(N)=O)N1CCN(Cc2cc3nc(-c4c(F)ccc5[nH]ccc45)nc(N4CCOCC4)c3s2)CC1 | 2.38 |

----------
Experiment: Selectivity ratio of IC50 for PI3Kgamma to IC50 for PI3Kdelta
measured_quantity: Ratio IC50

I: CCc1nc2ccccc2n1-c1nc(N2CCOCC2)c2sc(CN3CCN(C4COC4)CC3(C)C)cc2n1
II: CC(C)(C(N)=O)N1CCN(Cc2cc3nc(-c4c(F)cc(F)c5[nH]ccc45)nc(N4CCOCC4)c3s2)CC1
III: CC(C)(C(N)=O)N1CCN(Cc2cc3nc(-c4cccc5[nH]ccc45)nc(N4CCOCC4)c3s2)CC1
IV: CC(C)(C(N)=O)N1CCN(Cc2cc3nc(-c4cc(F)cc5[nH]ccc45)nc(N4CCOCC4)c3s2)CC1
Task: Rank by Ratio IC50 (largest to smallest). Give me the labels in the order the question wants.
Result: III, IV, II, I

----------
Biological target: Phosphatidylinositol 4,5-bisphosphate 3-kinase catalytic subunit delta isoform (Homo sapiens)
pIC50: −log10 of the molar value.
measured_quantity: pIC50

Look over these answered cases.
| structure_string | reported_result |
| --- | --- |
| CCc1nc2ccccc2n1-c1nc(N2CCOCC2)c2sc(CN3CCN(C4COC4)CC3(C)C)cc2n1 | 8.64 |
| CC(C)(C(N)=O)N1CCN(Cc2cc3nc(-c4cccc5[nH]ccc45)nc(N4CCOCC4)c3s2)CC1 | 8.74 |

P: CN(C)C1CCN(Cc2cc3nc(-c4c(F)ccc5[nH]ccc45)nc(N4CCOCC4)c3s2)CC1
Q: CC(C)(C(N)=O)N1CCN(Cc2cc3nc(-c4c(F)ccc5[nH]ccc45)nc(N4CCOCC4)c3s2)CC1
Task: # compare pIC50 for P vs Q ; return the one with the smaller value Record your answer as the label of the chosen record.
Result: Q

----------
Assay: Selectivity ratio of IC50 for PI3Kalpha to IC50 for PI3Kdelta
measured_quantity: Ratio IC50

# annotated cases, reported Ratio IC50 shown
| structure_string | measured_quantity | reported_result |
| --- | --- | --- |
| CN(C)C1CCN(Cc2cc3nc(-n4cnc5ccccc54)nc(N4CCOCC4)c3s2)CC1 | Ratio IC50 | 14 |
| CC(C)(C(N)=O)N1CCN(Cc2cc3nc(-c4c(F)cc(F)c5[nH]ccc45)nc(N4CCOCC4)c3s2)CC1 | Ratio IC50 | 96 |
| CC(C)(C(N)=O)N1CCN(Cc2cc3nc(-c4cncc5[nH]ccc45)nc(N4CCOCC4)c3s2)CC1 | Ratio IC50 | 41 |
| CN(C)C1CCN(Cc2cc3nc(-c4cccc5nccn45)nc(N4CCOCC4)c3s2)CC1 | Ratio IC50 | 21 |
| CC(C)(C(N)=O)N1CCN(Cc2cc3nc(-c4cc(F)cc5[nH]ccc45)nc(N4CCOCC4)c3s2)CC1 | Ratio IC50 | 77 |

a: CN(C)C1CCN(Cc2cc3nc(-c4c(F)ccc5[nH]ccc45)nc(N4CCOCC4)c3s2)CC1
b: CC(C)(C(N)=O)N1CCN(Cc2cc3nc(-c4ccnc5[nH]ccc45)nc(N4CCOCC4)c3s2)CC1
Task: Sorting ascending by Ratio IC50, which comes first: a or b ? Your answer should be the label of the entry you select.
Result: b

P: CC(C)(C(N)=O)N1CCN(Cc2cc3nc(-c4cccc5[nH]ccc45)nc(N4CCOCC4)c3s2)CC1
Q: CCc1nc2ccccc2n1-c1nc(N2CCOCC2)c2sc(CN3CCN(C4COC4)CC3(C)C)cc2n1
Task: Compare Ratio IC50: is it lower for P or for Q ? Reply with the label of the item you choose.
Result: Q
(Q: 50, P: 129)

----------
Below is a list of entries, each paired with its recorded IC50 value.
Molecular target: Cytochrome P450 3A4 (Homo sapiens, UniProt P08684)
Sequence (P08684 whole entry): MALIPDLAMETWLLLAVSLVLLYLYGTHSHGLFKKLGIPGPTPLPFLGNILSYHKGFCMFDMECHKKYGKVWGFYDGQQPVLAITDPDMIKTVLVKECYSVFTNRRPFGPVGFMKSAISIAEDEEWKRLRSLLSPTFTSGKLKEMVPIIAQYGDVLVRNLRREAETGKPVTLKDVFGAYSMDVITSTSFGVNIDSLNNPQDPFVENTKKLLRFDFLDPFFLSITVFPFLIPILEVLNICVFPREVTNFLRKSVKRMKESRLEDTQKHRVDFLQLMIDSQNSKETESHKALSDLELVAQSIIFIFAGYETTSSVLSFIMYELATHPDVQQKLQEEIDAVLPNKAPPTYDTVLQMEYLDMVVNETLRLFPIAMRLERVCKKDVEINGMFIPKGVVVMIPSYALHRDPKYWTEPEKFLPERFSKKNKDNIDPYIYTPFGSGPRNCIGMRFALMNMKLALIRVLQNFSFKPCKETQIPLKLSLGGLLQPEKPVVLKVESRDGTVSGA
Assay: Time dependent inhibition of CYP3A4 in human liver microsomes preincubated for 30 mins

Known results for molecules:
| structure_string | IC50 |
| --- | --- |
| Cc1cc2c(-c3nc(N4CCOCC4)c4sc(CN5CCN(C(C)(C)C(N)=O)CC5)cc4n3)cccc2[nH]1 | < 0.1 µM |
| CC(C)(C(N)=O)N1CCN(Cc2cc3nc(-c4cncc5[nH]ccc45)nc(N4CCOCC4)c3s2)CC1 | 3.2 µM |
| CC(C)(C(N)=O)N1CCN(Cc2cc3nc(-c4ccnc5[nH]ccc45)nc(N4CCOCC4)c3s2)CC1 | < 0.1 µM |
| CC(C)(C(N)=O)N1CCN(Cc2cc3nc(-c4cc(C#N)cc5[nH]ccc45)nc(N4CCOCC4)c3s2)CC1 | 1.2 µM |
| CC(C)(C(N)=O)N1CCN(Cc2cc3nc(-c4nccc5[nH]ccc45)nc(N4CCOCC4)c3s2)CC1 | > 10 µM |

Task: Which IC50 value is on record for Cn1ccc2c(-c3nc(N4CCOCC4)c4sc(CN5CCN(C(C)(C)C(N)=O)CC5)cc4n3)cccc21 ?
Result: > 10 µM

Task: Recorded IC50 for CCc1nc2ccccc2n1-c1nc(N2CCOCC2)c2sc(CN3CCN(C4COC4)CC3(C)C)cc2n1 , please?
Result: > 10 µM

Task: Which IC50 reading was recorded for the molecule CCc1nc2ccccc2n1-c1nc(N2CCOCC2)c2sc(CN3CCC(C(C)(C)O)CC3)cc2n1 ?
Result: > 10 µM
